Form field: Mean OD value (one value per entry).
TARGET_OR_TEST_SYSTEM: T1, human Gal10-His (human, UniProt Q05315 2-142, limits assumed)
T1 construct: also called hGal10-His; human Gal10-His tagged; not shown: His tag
T1 sequence: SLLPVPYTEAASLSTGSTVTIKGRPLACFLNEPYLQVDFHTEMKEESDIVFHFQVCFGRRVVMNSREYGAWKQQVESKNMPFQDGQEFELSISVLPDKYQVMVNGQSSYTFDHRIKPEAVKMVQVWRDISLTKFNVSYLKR
ASSAY_PROCEDURE: competition ELISA on coated Gal10-His; hFab 20 ug/mL, competitor g7B07-hFab-Biot, streptavidin-HRP

| BINDER | UNIT_OF_MEASURE | Mean OD value |
| --- | --- | --- |
| g20H09 (Fab) (Fab, V domains shown, same VH/VL) VH: EVQLLESGGGLVQPGGSLRLSCAASGFTFRSYDMSWVRQAPGKGLEWVSAIKWHRITYYADSVKGRFTISRDNSKNTLYLQMNSLRAEDTAVYYCATTHGIGTLGFGSWGQGTLVTVSS VL: SYELTQPLSVSVALGQTARITCDGNNIGSKSAQWYQQKPGQAPVLVIYADEYRPEGIPERFSGSNSGNTATLTISRAQAGDEADYYCQVWDGSAAVFGGGTQLTVL | OD | 0.33 |
| g23H09 (Fab) (Fab, V domains shown, same VH/VL) VH: EVQLLESGGGLVQPGGSLRLSCAASGFTFRSYDMSWVRQAPGKGLEWVSAIAQFQHWTYYADSVKGRFTISRDNSKNTLYLQMNSLRAEDTAVYYCATTHGIGTLGFGSWGQGTLVTVSS VL: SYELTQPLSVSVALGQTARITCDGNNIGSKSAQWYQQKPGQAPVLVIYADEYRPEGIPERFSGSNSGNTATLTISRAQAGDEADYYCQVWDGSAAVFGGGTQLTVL | OD | 0.31 |
| g24F02_N53A (human Fab) (Fab, V domains shown, Human Fab backbone: human CH1 and human lambda constant domain (pUPEX vectors); also called g24F02_N53A_2W) VH: EVQLLESGGGLVQPGGSLRLSCAASGFTFSSYAMSWVRQAPGKGLEWVSAINAGGGSTSYADSVKGRFTISRDNSKNTLYLQMNSLRAEDTAVYYCAKGLRVGVLGFDYWGQGTLVTVSS VL: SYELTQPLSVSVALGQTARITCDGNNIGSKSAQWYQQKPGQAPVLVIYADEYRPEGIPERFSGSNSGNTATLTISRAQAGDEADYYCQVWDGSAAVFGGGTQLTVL | OD | 0.2 |
| g24F02 (human Fab) (Fab, V domains shown, Human Fab backbone (human CH1, human lambda CL); also called germlined 24F02) VH: EVQLLESGGGLVQPGGSLRLSCAASGFTFSSYAMSWVRQAPGKGLEWVSAINNGGGSTSYADSVKGRFTISRDNSKNTLYLQMNSLRAEDTAVYYCAKGLRVGVLGFDYWGQGTLVTVSS VL: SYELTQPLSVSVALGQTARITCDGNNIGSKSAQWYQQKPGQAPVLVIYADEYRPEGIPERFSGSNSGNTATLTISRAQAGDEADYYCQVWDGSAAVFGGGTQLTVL | OD | 0.26 |
